Data provenance is PubChem BioAssay.

experiment: RAM signaling pathway blockade in yeast – S. cerevisiae, Pdr1DBD-CYC8 efflux-inhibited sensitized strain, primary screen (AID 1298);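 further: 0% = DMSO untreated cells without growth and 100% = 10 µM 1-NA-PP1 full growth; higher means more yeast growth rescued from 5-FOA killing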; settings: S. cerevisiae cbk1-as DSE1-URA3 strain, 5-FOA growth OD615, 2 d; at 50 µM; stronger effect = higher value
READOUT_TYPE: RAM network inhibition (%)

[[record]]
compound = "CCN1CCN(C(=O)CS(=O)Cc2nc(-c3ccc(OC)cc3)oc2C)CC1 (stereo not drawn)"
value_measured = 1.04

[[record]]
compound = "COc1ccc(NC(=O)CC2SC(=Nc3ccccc3)NC2=O)c(OC)c1 (stereo not drawn)"
value_measured = 7.78

[[record]]
compound = "COc1ccc(CCNC(=O)CN(c2ccc(OC)c(OC)c2)S(C)(=O)=O)cc1OC"
value_measured = 1.49

